Target: Sodium channel protein type 9 subunit alpha (Homo sapiens)
Assay: Inhibition of Nav1.7 (unknown origin) expressed in HEK293 cells by PatchXpress method
Format: cell-based
MEASURED QUANTITY: IC50 (nM)
Enter your answer as a number in nM; do not include the unit.

# assay system Sodium channel protein type 9 subunit alpha (Homo sapiens): give IC50 of "Cn1cc(-c2ccc(C(F)(F)F)cc2-c2cn[nH]c2)c2ccc(S(=O)(=O)Nc3ncns3)cc21"
38

====

Target: Sodium channel protein type 9 subunit alpha (Homo sapiens, UniProt Q15858)
Sequence (Q15858 whole entry): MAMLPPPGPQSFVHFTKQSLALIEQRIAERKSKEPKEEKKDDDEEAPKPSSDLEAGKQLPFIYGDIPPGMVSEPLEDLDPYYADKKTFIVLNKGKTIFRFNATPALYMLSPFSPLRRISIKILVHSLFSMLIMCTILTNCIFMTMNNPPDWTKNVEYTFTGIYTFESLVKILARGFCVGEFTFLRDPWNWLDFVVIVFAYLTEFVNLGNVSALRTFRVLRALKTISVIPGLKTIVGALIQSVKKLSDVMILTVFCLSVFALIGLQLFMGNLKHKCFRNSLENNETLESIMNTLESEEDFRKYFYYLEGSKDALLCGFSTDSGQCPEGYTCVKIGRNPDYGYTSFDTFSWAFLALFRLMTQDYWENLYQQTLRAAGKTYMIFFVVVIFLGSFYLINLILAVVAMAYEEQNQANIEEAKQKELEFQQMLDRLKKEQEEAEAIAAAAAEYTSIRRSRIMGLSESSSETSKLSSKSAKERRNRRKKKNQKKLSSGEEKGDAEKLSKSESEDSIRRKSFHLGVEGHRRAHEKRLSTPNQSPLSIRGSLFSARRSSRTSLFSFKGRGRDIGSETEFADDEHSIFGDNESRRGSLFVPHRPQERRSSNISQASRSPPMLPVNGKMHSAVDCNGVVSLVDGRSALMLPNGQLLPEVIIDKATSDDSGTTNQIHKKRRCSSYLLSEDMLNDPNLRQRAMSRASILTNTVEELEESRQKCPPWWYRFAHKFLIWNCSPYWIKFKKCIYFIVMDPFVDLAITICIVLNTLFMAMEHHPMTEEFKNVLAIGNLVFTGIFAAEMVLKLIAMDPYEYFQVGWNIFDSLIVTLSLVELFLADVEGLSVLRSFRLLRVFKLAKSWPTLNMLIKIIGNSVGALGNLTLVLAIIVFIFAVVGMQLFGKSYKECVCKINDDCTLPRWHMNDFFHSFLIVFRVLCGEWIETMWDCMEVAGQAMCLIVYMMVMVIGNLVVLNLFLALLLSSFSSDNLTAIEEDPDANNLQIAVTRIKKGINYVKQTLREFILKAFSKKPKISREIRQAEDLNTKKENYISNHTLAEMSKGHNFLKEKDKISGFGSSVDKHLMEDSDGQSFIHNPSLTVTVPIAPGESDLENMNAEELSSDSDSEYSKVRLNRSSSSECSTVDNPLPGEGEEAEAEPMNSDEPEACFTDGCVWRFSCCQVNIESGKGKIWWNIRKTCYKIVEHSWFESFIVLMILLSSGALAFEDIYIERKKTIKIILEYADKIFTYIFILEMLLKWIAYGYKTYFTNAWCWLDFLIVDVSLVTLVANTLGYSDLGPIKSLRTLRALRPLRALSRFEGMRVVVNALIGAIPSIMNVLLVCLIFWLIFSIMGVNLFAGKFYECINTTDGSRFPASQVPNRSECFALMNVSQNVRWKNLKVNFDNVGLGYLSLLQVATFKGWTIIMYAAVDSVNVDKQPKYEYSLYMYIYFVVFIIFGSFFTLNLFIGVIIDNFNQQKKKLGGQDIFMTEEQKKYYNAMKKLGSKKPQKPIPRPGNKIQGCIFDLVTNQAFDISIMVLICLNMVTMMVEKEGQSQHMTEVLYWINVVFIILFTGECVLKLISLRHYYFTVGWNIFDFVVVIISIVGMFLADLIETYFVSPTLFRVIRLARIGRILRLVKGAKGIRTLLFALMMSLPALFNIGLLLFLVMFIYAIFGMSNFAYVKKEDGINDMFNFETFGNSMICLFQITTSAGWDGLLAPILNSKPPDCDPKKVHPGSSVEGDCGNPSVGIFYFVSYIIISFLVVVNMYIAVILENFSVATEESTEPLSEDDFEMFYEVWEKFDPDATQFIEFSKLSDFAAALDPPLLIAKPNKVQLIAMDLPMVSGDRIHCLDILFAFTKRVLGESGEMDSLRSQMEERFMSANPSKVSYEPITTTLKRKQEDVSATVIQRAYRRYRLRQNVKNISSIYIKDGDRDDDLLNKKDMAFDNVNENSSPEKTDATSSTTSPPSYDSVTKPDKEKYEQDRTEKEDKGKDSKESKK
Assay: Inhibition of human Nav1.7 expressed in HEK293 cells by FLIPR method
Type: cell-based
So I've got a bunch of molecules here, and I need their pIC50 values.
Convention used: pIC50 is expressed as -log10 of the molar concentration.

Respond only with pIC50 recorded for "Cc1oc2nc(-c3ccccc3Cl)nn2c1CNCCc1ccccc1Cl"
6.21

Respond only with pIC50 recorded for CN(C)c1ccc(C(=O)NC2CC23CCN(c2ccccc2)CC3)c2ccccc12 (stereo not given)
6.63

Respond only with pIC50 recorded for O=C(NCC1CCCCN1)c1ccc(Oc2cc(C(F)(F)F)cc(C(F)(F)F)c2)cc1 (stereo not given)
5.94

Respond only with pIC50 recorded for CCCCCN1C(=O)COCC1c1cncc(-c2ccc(OC(F)(F)F)cc2)c1 (stereo not given)
6.11

Respond only with pIC50 recorded for "NC(=O)c1cnc(-c2ccc(Oc3cc(F)cc(Cl)c3)cc2)nc1[C@@H](O)CO"
7.17

====

Target: Sodium channel protein type 9 subunit alpha (Homo sapiens)
Test: Inhibition of Nav1.7 (unknown origin)
MEASURED QUANTITY: IC50 (nM)
Enter your answer as a number in nM; do not include the unit.

Respond only with IC50 recorded for "O=S(=O)(Nc1ncns1)c1cc(F)c(OC[C@@H]2CNCC[C@H]2c2ccc(Cl)cc2)cc1F"
3.3

====

Molecular target: Sodium channel protein type 9 subunit alpha (Homo sapiens, UniProt Q15858)
Experiment: Inhibition of human Nav1.7 expressed in HEK cells by whole-cell patch-clamp technique
Assay type: cell-based, HEK293
So I've got a bunch of compounds here, and I need their pIC50 values.
Convention used: pIC50 is expressed as -log10 of the molar concentration.

Respond only with pIC50 recorded for "CCOc1ncccc1-c1cc(C(=O)NS(C)(=O)=O)ccc1Oc1ccc(Cl)c(C(F)(F)F)c1"
7.46

Respond only with pIC50 recorded for "CC1(COc2ccc(-n3nc(C4CC4)c4cc(C(=O)NS(C)(=O)=O)ccc43)cn2)CC1"
6.89

====

Target: Sodium channel protein type 9 subunit alpha (Homo sapiens)
Test: Inhibition of human Nav1.7 expressed in HEK293 cells […] by QPatch method
Format: cell-based
MEASURED QUANTITY: IC50 (nM)
Enter your answer as a number in nM; do not include the unit.

# assay system Sodium channel protein type 9 subunit alpha (Homo sapiens): give IC50 of "Cc1ccc(OCC(C)C)c(-c2cccc([C@H]3CC[C@]4(CCN(C)C4=O)N3)c2)c1"
398

====

Biological target: Sodium channel protein type 5 subunit alpha (Homo sapiens, UniProt Q14524)
Sequence (Q14524 whole entry): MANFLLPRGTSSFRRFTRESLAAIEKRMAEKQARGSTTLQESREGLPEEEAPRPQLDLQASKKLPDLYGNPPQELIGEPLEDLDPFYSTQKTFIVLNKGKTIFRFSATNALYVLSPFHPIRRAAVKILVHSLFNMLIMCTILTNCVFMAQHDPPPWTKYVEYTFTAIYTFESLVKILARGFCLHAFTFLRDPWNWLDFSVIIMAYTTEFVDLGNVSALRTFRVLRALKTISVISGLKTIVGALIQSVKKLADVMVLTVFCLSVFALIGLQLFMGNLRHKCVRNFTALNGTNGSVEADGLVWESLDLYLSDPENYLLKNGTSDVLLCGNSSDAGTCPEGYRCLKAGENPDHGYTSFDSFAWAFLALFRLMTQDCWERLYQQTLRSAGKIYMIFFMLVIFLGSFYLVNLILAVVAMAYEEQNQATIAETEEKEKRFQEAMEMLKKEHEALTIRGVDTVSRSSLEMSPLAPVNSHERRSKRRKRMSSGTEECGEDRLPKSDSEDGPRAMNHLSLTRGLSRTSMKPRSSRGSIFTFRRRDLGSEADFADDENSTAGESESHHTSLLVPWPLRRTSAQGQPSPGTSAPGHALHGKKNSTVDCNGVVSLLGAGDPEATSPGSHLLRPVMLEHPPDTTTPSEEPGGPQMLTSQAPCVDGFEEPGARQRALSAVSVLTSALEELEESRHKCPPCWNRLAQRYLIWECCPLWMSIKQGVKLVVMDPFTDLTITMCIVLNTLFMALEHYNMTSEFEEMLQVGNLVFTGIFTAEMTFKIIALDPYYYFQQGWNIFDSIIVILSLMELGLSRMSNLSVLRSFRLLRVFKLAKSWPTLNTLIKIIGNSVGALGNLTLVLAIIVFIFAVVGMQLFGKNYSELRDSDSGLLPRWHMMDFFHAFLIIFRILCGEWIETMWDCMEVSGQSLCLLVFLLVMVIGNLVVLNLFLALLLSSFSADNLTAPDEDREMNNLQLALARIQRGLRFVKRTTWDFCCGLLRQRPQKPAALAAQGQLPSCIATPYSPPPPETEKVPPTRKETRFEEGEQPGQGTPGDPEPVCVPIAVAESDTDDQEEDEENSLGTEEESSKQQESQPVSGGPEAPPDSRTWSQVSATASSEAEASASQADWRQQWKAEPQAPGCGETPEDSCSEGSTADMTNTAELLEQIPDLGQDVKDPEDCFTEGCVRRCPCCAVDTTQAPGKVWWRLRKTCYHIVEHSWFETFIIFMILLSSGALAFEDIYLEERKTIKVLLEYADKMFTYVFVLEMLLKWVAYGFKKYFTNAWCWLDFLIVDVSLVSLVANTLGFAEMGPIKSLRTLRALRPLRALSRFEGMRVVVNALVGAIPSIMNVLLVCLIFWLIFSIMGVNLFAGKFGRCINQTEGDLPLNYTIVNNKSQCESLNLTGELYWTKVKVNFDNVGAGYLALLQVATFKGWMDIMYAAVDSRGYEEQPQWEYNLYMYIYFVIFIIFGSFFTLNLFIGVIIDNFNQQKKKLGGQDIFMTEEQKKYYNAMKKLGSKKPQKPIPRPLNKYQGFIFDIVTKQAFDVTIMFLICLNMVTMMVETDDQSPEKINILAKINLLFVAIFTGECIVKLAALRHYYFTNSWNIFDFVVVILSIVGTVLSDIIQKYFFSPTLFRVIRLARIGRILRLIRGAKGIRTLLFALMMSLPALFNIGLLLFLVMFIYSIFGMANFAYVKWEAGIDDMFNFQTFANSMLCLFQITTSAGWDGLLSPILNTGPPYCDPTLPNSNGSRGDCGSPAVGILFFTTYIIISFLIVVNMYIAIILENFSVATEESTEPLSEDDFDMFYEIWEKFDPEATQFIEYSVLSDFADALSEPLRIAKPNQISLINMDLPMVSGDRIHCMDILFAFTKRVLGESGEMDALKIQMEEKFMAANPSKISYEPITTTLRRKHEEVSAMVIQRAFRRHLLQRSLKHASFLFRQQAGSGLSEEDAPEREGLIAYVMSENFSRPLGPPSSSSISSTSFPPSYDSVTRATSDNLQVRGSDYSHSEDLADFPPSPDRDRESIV
Assay: Inhibition of Nav1.5 (unknown origin)
pIC50: −log10 of the molar value.
MEASURED QUANTITY: pIC50

Respond only with pIC50 recorded for "Nc1noc2ccc(-c3cc(Cl)ccc3Oc3cc(F)c(S(=O)(=O)Nc4ncns4)cc3F)cc12"
< 6.00

All figures here come from ChEMBL document CHEMBL3351765.
